Tested on: VDR:RXRa (NR concentration 270 nM, RXRa partner concentration 90 nM)
Assay: PBM binding z-score (relative to random genomic background probes); higher = stronger binding; sequences stand for … in GC…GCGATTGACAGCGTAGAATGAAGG
Record t whenever PBM binding z-score is at 2 or higher; record f when lower.

Solved entries (count: 3):
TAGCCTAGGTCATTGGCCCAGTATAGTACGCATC
t
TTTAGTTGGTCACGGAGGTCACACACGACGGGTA
t
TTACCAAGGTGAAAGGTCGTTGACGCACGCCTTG
t

Dear colleague, could you confirm whether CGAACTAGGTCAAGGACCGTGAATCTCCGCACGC has PBM binding z-score at or above 2?
f

Dear colleague, could you confirm whether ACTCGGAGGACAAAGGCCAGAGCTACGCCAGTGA has PBM binding z-score at or above 2?
f

Dear colleague, could you confirm whether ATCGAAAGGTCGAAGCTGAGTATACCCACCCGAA has PBM binding z-score at or above 2?
t

Dear colleague, could you confirm whether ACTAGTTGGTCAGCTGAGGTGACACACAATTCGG has PBM binding z-score at or above 2?
f

Dear colleague, could you confirm whether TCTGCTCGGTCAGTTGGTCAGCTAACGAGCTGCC has PBM binding z-score at or above 2?
f
